assay: Plasma concentration versus time of Compound I and metabolite Compound III in patients dosed QD or BID with Form B of Compound II plus fulvestrant; format: in vivo, human; conditions: human, plasma, oral, 500 mg, 500 mg QD of Form B, Day 29, 8.0 h, Mean; read-out: Compound I Concentration
endpoint: concentration at 8 h (ng/mL)

{"columns": ["compound", "units of measure", "reported"],
 "data": [
  ["CC(C)N1CCN(c2ccc(Nc3ncc4cc5n(c4n3)C3(CCCCC3)CNC5=O)nc2)CC1 [Compound I]", "ng/mL", 34.1]
]}

###

assay: Plasma concentration versus time of Compound I and metabolite Compound III in patients dosed QD or BID with Form B of Compound II plus fulvestrant; type: in vivo, human; conditions: human, plasma, oral, 200 mg, 200 mg BID of Form B, Day 1, 12.0 h, Mean; read-out: Compound I Concentration

{"columns": ["smiles string", "units of measure", "concentration at 12 h"],
 "data": [
  ["CC(C)N1CCN(c2ccc(Nc3ncc4cc5n(c4n3)C3(CCCCC3)CNC5=O)nc2)CC1", "ng/mL", 5.64]
]}
